molecular target: ROCKI (Homo sapiens, UniProt Q13464)
Sequence (Q13464 whole entry): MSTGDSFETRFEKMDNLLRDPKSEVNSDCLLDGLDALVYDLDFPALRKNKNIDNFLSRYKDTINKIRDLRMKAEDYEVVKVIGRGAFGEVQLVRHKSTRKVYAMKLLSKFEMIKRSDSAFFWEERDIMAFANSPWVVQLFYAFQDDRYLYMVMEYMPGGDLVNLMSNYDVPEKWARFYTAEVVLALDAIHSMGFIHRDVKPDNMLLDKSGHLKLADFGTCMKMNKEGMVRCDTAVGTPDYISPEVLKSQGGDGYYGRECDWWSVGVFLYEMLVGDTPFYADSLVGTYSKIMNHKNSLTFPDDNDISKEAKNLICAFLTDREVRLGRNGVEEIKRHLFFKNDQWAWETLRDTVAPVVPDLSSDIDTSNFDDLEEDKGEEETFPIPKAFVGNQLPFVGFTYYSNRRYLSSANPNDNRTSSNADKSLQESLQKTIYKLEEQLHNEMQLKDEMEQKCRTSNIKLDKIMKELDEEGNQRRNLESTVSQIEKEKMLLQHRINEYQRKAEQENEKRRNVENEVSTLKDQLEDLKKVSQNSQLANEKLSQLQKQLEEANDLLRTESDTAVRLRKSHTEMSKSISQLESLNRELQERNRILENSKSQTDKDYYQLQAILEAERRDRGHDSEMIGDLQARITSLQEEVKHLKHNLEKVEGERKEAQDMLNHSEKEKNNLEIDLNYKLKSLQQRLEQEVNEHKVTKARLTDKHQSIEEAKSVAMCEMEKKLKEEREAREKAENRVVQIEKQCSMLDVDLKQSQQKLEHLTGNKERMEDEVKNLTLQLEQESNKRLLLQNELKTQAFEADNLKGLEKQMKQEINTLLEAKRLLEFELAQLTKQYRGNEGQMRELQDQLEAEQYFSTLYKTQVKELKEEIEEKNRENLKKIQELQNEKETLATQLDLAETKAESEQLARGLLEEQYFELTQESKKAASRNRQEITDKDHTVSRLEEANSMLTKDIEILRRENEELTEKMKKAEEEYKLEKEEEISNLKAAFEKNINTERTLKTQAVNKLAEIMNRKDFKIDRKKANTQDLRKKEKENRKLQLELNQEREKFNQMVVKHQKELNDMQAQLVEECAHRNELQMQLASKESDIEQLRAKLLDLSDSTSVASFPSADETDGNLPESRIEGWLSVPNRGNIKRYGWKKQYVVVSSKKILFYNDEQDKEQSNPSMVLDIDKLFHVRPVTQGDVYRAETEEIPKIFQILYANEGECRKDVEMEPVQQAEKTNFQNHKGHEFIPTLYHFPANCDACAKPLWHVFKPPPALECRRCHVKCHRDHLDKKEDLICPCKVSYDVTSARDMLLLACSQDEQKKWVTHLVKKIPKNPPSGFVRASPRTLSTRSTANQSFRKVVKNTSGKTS
METRIC: pIC50
Entry type: numeric. Quantity: pIC50, the -log10 of concentration in molar units.

**Query** Value wanted: pIC50 (ROCKI (Homo sapiens, UniProt Q13464)) of entry CC(N)C1CCN(S(=O)(=O)c2cccc3cnccc23)CC1.Cl.Cl (racemic) [E-23a, dihydrochloride]
**Result** 4.69
